From: patent US20170165337A1

# peptide exchange yield values compiled below
- System Under Test: T1, HLA-A*02:01 (human)
- T1 construct: MHC class I monomer of the UV-ligand exchange assay; also called peptide-receptive MHC molecules; MHC class I
- Measurement Protocol: UV peptide-exchange ELISA
Readout: peptide exchange yield

[[record]]
binder = "FLWEEKFNSL"
test_value = "≥ 75%"

[[record]]
binder = "WLAGDVPAA"
test_value = "50 to 75%"

[[record]]
binder = "YLDLSNNRL"
test_value = "50 to 75%"

[[record]]
binder = "YMAVTTQEV"
test_value = "≥ 75%"

[[record]]
binder = "YLTFLPAEV"
test_value = "50 to 75%"

[[record]]
binder = "ILPTLEKELFL"
test_value = "50 to 75%"

[[record]]
binder = "FLDALLTDV"
test_value = "50 to 75%"

[[record]]
binder = "SLDDVEGMSV"
test_value = "50 to 75%"

